system: VRE EF379; test: microbroth antibiotic susceptibility testing, VRE; format: cell-based, vancomycin-resistant Enterococcus faecium; conditions: Enterococcus, VRE; triplicate, averaged; 22 h at 37°C; read-out: VRE MIC
REPORTED PROPERTY: MIC

Quick one: MIC for Cc1cc(=O)c(O)cc2c1C[C@H]1CC(C)(C)/C=C/C[C@@]3(C)Oc4cc(O)cc(C)c4C[C@@H]3C[C@H](O)[C@]1(C)O2 [Epolone A, epolone A] ?
> 64 µg/mL

Next: Cc1cc(O)c2c(c1)C(=O)c1cccc(O)c1C2=O [Chrysophanol, chrysophanol]
> 128 µg/mL

Also need COC1=C(Cl)C(C)(O)c2c(oc(=O)c3c(O)cc(OC)cc23)C1=O (stereo not drawn) [TMC-264] , thanks.
> 128 µg/mL

Try C[C@H]1CCC/C=C/[C@@H]2C[C@H](O)C[C@H]2[C@H](O)/C=C/C(=O)O1 [Brefeldin A, brefeldin A] next.
> 128 µg/mL

Next compound up: CO[C@H]1/C=C/O[C@@]2(C)Oc3c(C)c(O)c4c(O)c(c(/C=N/N5CCN(C)CC5)c(O)c4c3C2=O)NC(=O)/C(C)=C\C=C\[C@H](C)[C@H](O)[C@@H](C)[C@@H](O)[C@@H](C)[C@H](OC(C)=O)[C@@H]1C [Rifampicin, rifampicin, reference compound]
2 µg/mL

Same question for Cc1cc(CO)c2c(=O)c3c(O)cccc3oc2c1 please.
> 128 µg/mL

Now consider Cc1cc(=O)c(O)cc2c1C[C@H]1CC(C)(C)/C=C/C[C@@]3(C)Oc4cc(O)c(=O)cc(C)c4C[C@@H]3C[C@H](O)[C@]1(C)O2 [Pycnidione, pycnidione] and answer again.
64 µg/mL

Cool, now C/C1=C\C(C)(C)/C=C/C[C@@]2(C)Oc3cc(O)c(=O)cc(C)c3CC2C[C@@H](O)C1 (stereo partly drawn) [Epolone B, epolone B]
> 64 µg/mL

Would you kindly repeat that for Cc1cc(O)c2c(c1)C(C1c3cccc(O)c3C(=O)c3c(O)cc(C)cc31)c1cccc(O)c1C2=O (stereo not drawn) [Chrysophanol bianthrone, chrysophanol bianthrone] ?
> 128 µg/mL

* * *

tested on: VRE EF379; assay: microbroth antibiotic susceptibility testing, VRE; assay type: cell-based, vancomycin-resistant Enterococcus faecium; conditions: Enterococcus, VRE; triplicate, averaged; 22 h at 37°C; read-out: VRE IC50
REPORTED PROPERTY: IC50 (µg/mL)
Kindly answer with a numeric value in µg/mL, unit omitted.

Form field: reported IC50 of Cc1cc(=O)c(O)cc2c1C[C@H]1CC(C)(C)/C=C/C[C@@]3(C)Oc4cc(O)c(=O)cc(C)c4C[C@@H]3C[C@H](O)[C@]1(C)O2
46

Here is the next molecule: CO[C@H]1/C=C/O[C@@]2(C)Oc3c(C)c(O)c4c(O)c(c(/C=N/N5CCN(C)CC5)c(O)c4c3C2=O)NC(=O)/C(C)=C\C=C\[C@H](C)[C@H](O)[C@@H](C)[C@@H](O)[C@@H](C)[C@H](OC(C)=O)[C@@H]1C [Rifampicin, rifampicin, reference compound]
0.5

Lookup Cc1cc(=O)c(O)cc2c1C[C@H]1CC(C)(C)/C=C/C[C@@]3(C)Oc4cc(O)cc(C)c4C[C@@H]3C[C@H](O)[C@]1(C)O2
44

* * *

system: human breast adenocarcinoma cells (ATCC HTB-26); assay: cytotoxicity assay (Alamar blue), HTB-26; format: cell-based; settings: HTB-26 breast cancer cells, 72 h
REPORTED PROPERTY: HTB-26 MIC (mg/L)
Supply the numeric figure in mg/L, leaving out any unit text.

Could you share which HTB-26 MIC value was measured for COC1=C(Cl)C(C)(O)c2c(oc(=O)c3c(O)cc(OC)cc23)C1=O (stereo not drawn) ?
8

Now this one: Cc1cc(O)c2c(c1)C(C1c3cccc(O)c3C(=O)c3c(O)cc(C)cc31)c1cccc(O)c1C2=O (stereo not drawn)
64

* * *

tested on: Candida albicans ATCC 14035; test: microbroth susceptibility testing, C. albicans; format: cell-based; conditions: Candida albicans, ATCC14035; triplicate, averaged; 22 h at 37°C
REPORTED PROPERTY: IC50

Value lookup for IC50; key = C[C@H]1CCC/C=C/[C@@H]2C[C@H](O)C[C@H]2[C@H](O)/C=C/C(=O)O1 [Brefeldin A, brefeldin A]
20 µg/mL

Please answer likewise for Cc1cc(=O)c(O)cc2c1C[C@H]1CC(C)(C)/C=C/C[C@@]3(C)Oc4cc(O)cc(C)c4C[C@@H]3C[C@H](O)[C@]1(C)O2 [Epolone A, epolone A]
> 64 µg/mL

What do we get for Cc1cc(=O)c(O)cc2c1C[C@H]1CC(C)(C)/C=C/C[C@@]3(C)Oc4cc(O)c(=O)cc(C)c4C[C@@H]3C[C@H](O)[C@]1(C)O2 [Pycnidione, pycnidione] ?
5 µg/mL

Please do the same for COC1=C(Cl)C(C)(O)c2c(oc(=O)c3c(O)cc(OC)cc23)C1=O (stereo not drawn) [TMC-264] as well.
> 128 µg/mL

Item: Cc1cc(O)c2c(c1)C(C1c3cccc(O)c3C(=O)c3c(O)cc(C)cc31)c1cccc(O)c1C2=O (stereo not drawn) [Chrysophanol bianthrone, chrysophanol bianthrone]
> 128 µg/mL

What about Cc1cc(CO)c2c(=O)c3c(O)cccc3oc2c1 ?
> 128 µg/mL

Try the molecule Cc1cc(O)c2c(c1)C(=O)c1cccc(O)c1C2=O [Chrysophanol, chrysophanol]
> 128 µg/mL

Also need CC(C)C12SSSSC3(C(=O)N1C)C1OC45C(=O)N(C)C(CO)C(=O)N4C4Nc6ccccc6C4(C5O)C14c1ccccc1NC4N3C2=O (stereo not drawn) [Leptosin J, leptosin J] , thanks.
> 128 µg/mL

C/C1=C\C(C)(C)/C=C/C[C@@]2(C)Oc3cc(O)c(=O)cc(C)c3CC2C[C@@H](O)C1 (stereo partly drawn) [Epolone B, epolone B] , same question.
43 µg/mL

* * *

Task for the reader: assign each of the following molecules its reported IC50.
tested on: adult human epidermal keratinocytes (HEKa); assay: cytotoxicity assay (Alamar blue), keratinocytes; type: cell-based; conditions: Homo sapiens; HeKa cells, 24 h; read-out: Keratinocyte IC50
Your answer is read as µg/mL, so omit the unit and give the number.

Tell me the measured IC50 of Cc1cc(=O)c(O)cc2c1C[C@H]1CC(C)(C)/C=C/C[C@@]3(C)Oc4cc(O)c(=O)cc(C)c4C[C@@H]3C[C@H](O)[C@]1(C)O2 , please.
15

Do the same for Cc1cc(=O)c(O)cc2c1C[C@H]1CC(C)(C)/C=C/C[C@@]3(C)Oc4cc(O)cc(C)c4C[C@@H]3C[C@H](O)[C@]1(C)O2 please
13

Then this molecule: COC1=C(Cl)C(C)(O)c2c(oc(=O)c3c(O)cc(OC)cc23)C1=O (stereo not drawn)
1

Next molecule up: C[C@H]1CCC/C=C/[C@@H]2C[C@H](O)C[C@H]2[C@H](O)/C=C/C(=O)O1
0.5

Now consider Cc1cc(CO)c2c(=O)c3c(O)cccc3oc2c1 .
12

Request: C/C1=C\C(C)(C)/C=C/C[C@@]2(C)Oc3cc(O)c(=O)cc(C)c3CC2C[C@@H](O)C1 (stereo partly drawn)
50

* * *

test system: Proteus vulgaris ATCC 12454; test: microbroth antibiotic susceptibility testing, P. vulgaris; assay type: cell-based; settings: Proteus vulgaris, ATCC12454; triplicate, averaged; 22 h at 37°C
REPORTED PROPERTY: IC50

Which IC50 value is on record for Cc1cc(=O)c(O)cc2c1C[C@H]1CC(C)(C)/C=C/C[C@@]3(C)Oc4cc(O)cc(C)c4C[C@@H]3C[C@H](O)[C@]1(C)O2 ?
> 64 µg/mL

Moving on to C[C@H]1CCC/C=C/[C@@H]2C[C@H](O)C[C@H]2[C@H](O)/C=C/C(=O)O1
> 128 µg/mL

Same question, Cc1cc(=O)c(O)cc2c1C[C@H]1CC(C)(C)/C=C/C[C@@]3(C)Oc4cc(O)c(=O)cc(C)c4C[C@@H]3C[C@H](O)[C@]1(C)O2 this time
30 µg/mL

Record: CC(C)C12SSSSC3(C(=O)N1C)C1OC45C(=O)N(C)C(CO)C(=O)N4C4Nc6ccccc6C4(C5O)C14c1ccccc1NC4N3C2=O (stereo not drawn)
> 128 µg/mL

Okay, and C/C1=C\C(C)(C)/C=C/C[C@@]2(C)Oc3cc(O)c(=O)cc(C)c3CC2C[C@@H](O)C1 (stereo partly drawn) ?
> 64 µg/mL

Same question, Cc1cc(O)c2c(c1)C(=O)c1cccc(O)c1C2=O this time
> 128 µg/mL

* * *

tested on: Proteus vulgaris ATCC 12454; assay: microbroth antibiotic susceptibility testing, P. vulgaris; type: cell-based; settings: Proteus vulgaris, ATCC12454; triplicate, averaged; 22 h at 37°C
REPORTED PROPERTY: IC50

What IC50 value was documented for this compound, Cc1cc(O)c2c(c1)C(C1c3cccc(O)c3C(=O)c3c(O)cc(C)cc31)c1cccc(O)c1C2=O (stereo not drawn) ?
> 128 µg/mL

Same again, this time with Cc1cc(CO)c2c(=O)c3c(O)cccc3oc2c1
> 128 µg/mL

Do the same for COC1=C(Cl)C(C)(O)c2c(oc(=O)c3c(O)cc(OC)cc23)C1=O (stereo not drawn) please
> 128 µg/mL
